These entries and their values trace back to patent US20230242494A1.

Catalogue of pIC50 readings, one per entry.
- TARGET UNDER TEST: human cGAS (residues 161-522) (Homo sapiens)
- Construct: human cGAS (residues 161-522)
- Sequence (Q8N884 161-522): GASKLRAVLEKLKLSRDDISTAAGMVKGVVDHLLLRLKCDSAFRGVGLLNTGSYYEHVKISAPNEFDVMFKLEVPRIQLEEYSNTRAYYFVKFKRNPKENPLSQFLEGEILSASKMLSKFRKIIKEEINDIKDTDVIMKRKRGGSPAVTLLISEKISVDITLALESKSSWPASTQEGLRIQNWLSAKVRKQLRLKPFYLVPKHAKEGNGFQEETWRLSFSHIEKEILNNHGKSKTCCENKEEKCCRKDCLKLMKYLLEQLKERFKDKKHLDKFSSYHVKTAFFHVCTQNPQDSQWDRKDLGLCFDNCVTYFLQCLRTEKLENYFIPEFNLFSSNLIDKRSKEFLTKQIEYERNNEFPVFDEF
- EXPERIMENTAL DETAILS: cGAS Activity Assay—Malachite Green
- MEASUREMENT SETUP: recombinant purified human cGAS 25 nM; 80 μM ATP, 80 μM GTP, 100 nM ISD; 4 hour at RT; phosphate detection by Malachite Green
pIC50: −log10 of the molar value.

- COMPOUND: "Cc1oncc1/C(O)=C(\\C#N)C(=O)Nc1ccc(S(=O)(=O)c2ccccc2C#N)cc1 [Example 122]"
  pIC50: 6.89
- COMPOUND: "Cc1oncc1/C(O)=C(\\C#N)C(=O)Nc1ccc(C(C)(C)c2ccccc2)cc1 [Example 104]"
  pIC50: 5.51
- COMPOUND: "Cc1oncc1/C(O)=C(\\C#N)C(=O)Nc1ccc(Oc2cccc(C(F)(F)F)c2)cc1 [Example 18]"
  pIC50: 5.43
- COMPOUND: "Cc1oncc1/C(O)=C(\\C#N)C(=O)Nc1ccc(S(C)(=N)=O)cc1 (stereo not shown) [Example 113]"
  pIC50: 6.48
